tested-system: P2X7 receptor (Homo sapiens)
Construct: host or cells: THP-1 cells differentiated with LPS and IFN-γ
test-details: IL-1β release assay in differentiated THP-1 cells stimulated with BzATP (Example 9)
Type: cell-based
condition-notes: 0.3 μM compound; differentiated THP-1 cells, BzATP 250 uM; "+" class symbols; read-out: IL-1β % Inhib. @ 0.3 μM
Protocol: THP-1 cells (ATCC Cat # 285-IF-100) are plated in 96 well plates at a concentration of 200,000 cells per well and allowed to differentiate in RPMI-1640 media (ATCC Cat # 30-2001) containing 10% FBS, 100 IU/mL penicillin, 100 ug/mL streptomycin, 100 ng/mL LPS and 100 ng/mL IFN-γ for 16 hours. […] 30 uL of cell supernatant is then collected and IL-1β levels determined via ELISA (R&D systems Cat. # HSLB50) according to manufacturer's recommendations using the Tecan Safire plate reader. […]
# inhibition at 0.3 µM per entry

Enquiry: // Input: `O=C(Cc1ccc(Cl)c(C(F)(F)F)c1)Nc1cccc2c(=O)n(Cc3ccc(C(F)(F)F)nc3)ccc12` . Output its inhibition at 0.3 µM only.
Return: 26 to 50%

====

The following compounds are shown together with reported IC50 values.
tested-system: UniProt Q99572
test-details: IL-1β release assay in differentiated THP-1 cells stimulated with BzATP (Example 9)
condition-notes: THP-1 cells, BzATP-stimulated IL-1β release, four parameter logistic fit
Provide the reading as a plain figure in nM.

# example entries with known answers
>  <compound>
CC(=O)OCCn1ccc2c(NC(=O)Cc3ccc(C(F)(F)F)cc3C(F)(F)F)cccc2c1=O [Compound 1617]

>  <measurement-kind>
IC50

>  <output-unit>
nM

>  <recorded-number>
417

$$$$
>  <compound>
CC(C(=O)Nc1cccc2c(=O)n(CCN(C)C)ccc12)c1ccc(Cl)cc1 (centres unmarked) [Compound 1391]

>  <measurement-kind>
IC50

>  <output-unit>
nM

>  <recorded-number>
45.7

$$$$
>  <compound>
CC(c1ccccn1)n1ccc2c(NC(=O)Cc3ccc(C(F)(F)F)c(F)c3)cccc2c1=O (centres unmarked) [Compound 1635]

>  <measurement-kind>
IC50

>  <output-unit>
nM

>  <recorded-number>
112

$$$$
>  <compound>
CN(C)CCn1ccc2c(NC(=O)Cc3ccc(Cl)cc3C(F)(F)F)cccc2c1=O [Compound 1611]

>  <measurement-kind>
IC50

>  <output-unit>
nM

>  <recorded-number>
930

$$$$
>  <compound>
O=C(Cc1ccc(Cl)c(C(F)(F)F)c1)Nc1cccc2c(=O)n(Cc3ccccn3)ccc12 [Compound 1628]

>  <measurement-kind>
IC50

>  <output-unit>
nM

>  <recorded-number>
55.9

$$$$
>  <compound>
Cc1ccc(CC(=O)Nc2cccc3c(=O)n(CCN(C)C)ccc23)cc1 [Compound 1005]

>  <measurement-kind>
IC50

>  <output-unit>
nM

>  <recorded-number>
39.6

$$$$

Enquiry: Identify measured IC50 associated with Cn1ccc2c(NC(=O)CC3CCCCCC3)cccc2c1=O [Compound 1024]
Return: 31.5

Enquiry: Please report IC50 for the following compound: CN(C)CCn1ccc2c(NC(=O)Cc3ccc(Cl)cc3)cccc2c1=O [Compound 1004]
Return: 108

Enquiry: Supply measured IC50 of CN(C)CCn1ccc2c(NC(=O)CC3CCCCCC3)cccc2c1=O [Compound 1389] in your reply.
Return: 311

Enquiry: Tell me its IC50 given CC(=O)OCCn1ccc2c(NC(=O)Cc3ccc(Cl)c(Cl)c3)cccc2c1=O [Compound 1023] as the entry.
Return: 53.5

Enquiry: Please report IC50 for the following compound: CC(C)(C)OC(=O)N1CCC[C@@H]1Cn1ccc2c(NC(=O)Cc3ccc(Cl)c(C(F)(F)F)c3)cccc2c1=O [Compound 1620]
Return: 41.1

Enquiry: Return reported IC50. Input compound: CS(=O)(=O)CCn1ccc2c(NC(=O)Cc3ccc(Cl)c(Cl)c3)cccc2c1=O [Compound 1632]
Return: 315

Enquiry: Entry CC(c1ccccn1)n1ccc2c(NC(=O)Cc3cccc(C(F)(F)F)c3F)cccc2c1=O (centres unmarked) [Compound 1633] needs its IC50 filled in; supply it.
Return: 25.5

====

tested-system: P2X7 receptor (Homo sapiens, UniProt Q99572)
Construct: host or cells: THP-1 cells differentiated with LPS and IFN-γ
test-details: IL-1β release assay in differentiated THP-1 cells stimulated with BzATP (Example 9)
Type: cell-based
Design: dose or concentration left out as unconfirmed
condition-notes: THP-1; read-out: IL-1β % Inhib.
measurement-kind: inhibition

Some compounds with known inhibition results, for comparison:
>  <record-smiles>
Cc1ccccc1CCC(=O)Nc1cccc2c(=O)n(CCN(C)C)ccc12

>  <inhibition>
0 to 25%

$$$$
>  <record-smiles>
CN1CCC(Cn2ccc3c(NC(=O)c4ccc(-c5ccccc5)o4)cccc3c2=O)CC1

>  <inhibition>
0 to 25%

$$$$
>  <record-smiles>
COCCn1ccc2c(NC(=O)CCc3ccccc3OC)cccc2c1=O

>  <inhibition>
0 to 25%

$$$$
>  <record-smiles>
CCOc1ccc(C(=O)Nc2cccc3c(=O)n(CCCN4CCCC4=O)ccc23)cc1

>  <inhibition>
0 to 25%

$$$$
>  <record-smiles>
Cc1cc(C)cc(CC(=O)Nc2cccc3c(=O)n(CC4CCN(C)CC4)ccc23)c1

>  <inhibition>
26 to 50%

$$$$
>  <record-smiles>
Cc1cccc(CC(=O)Nc2cccc3c(=O)n(Cc4ccc(OC(F)(F)F)cc4)ccc23)c1

>  <inhibition>
0 to 25%

$$$$
>  <record-smiles>
Cc1cc(Cl)ccc1C(=O)Nc1cccc2c(=O)n(CC3CCN(C)CC3)ccc12

>  <inhibition>
0 to 25%

$$$$

Enquiry: Please give the documented inhibition of `O=C(Nc1cccc2c(=O)n(CCCN3CCCC3=O)ccc12)c1cccc2c1OCCO2`
Return: 26 to 50%

====

tested-system: P2X7 receptor (Homo sapiens)
Sequence (Q99572 1-595): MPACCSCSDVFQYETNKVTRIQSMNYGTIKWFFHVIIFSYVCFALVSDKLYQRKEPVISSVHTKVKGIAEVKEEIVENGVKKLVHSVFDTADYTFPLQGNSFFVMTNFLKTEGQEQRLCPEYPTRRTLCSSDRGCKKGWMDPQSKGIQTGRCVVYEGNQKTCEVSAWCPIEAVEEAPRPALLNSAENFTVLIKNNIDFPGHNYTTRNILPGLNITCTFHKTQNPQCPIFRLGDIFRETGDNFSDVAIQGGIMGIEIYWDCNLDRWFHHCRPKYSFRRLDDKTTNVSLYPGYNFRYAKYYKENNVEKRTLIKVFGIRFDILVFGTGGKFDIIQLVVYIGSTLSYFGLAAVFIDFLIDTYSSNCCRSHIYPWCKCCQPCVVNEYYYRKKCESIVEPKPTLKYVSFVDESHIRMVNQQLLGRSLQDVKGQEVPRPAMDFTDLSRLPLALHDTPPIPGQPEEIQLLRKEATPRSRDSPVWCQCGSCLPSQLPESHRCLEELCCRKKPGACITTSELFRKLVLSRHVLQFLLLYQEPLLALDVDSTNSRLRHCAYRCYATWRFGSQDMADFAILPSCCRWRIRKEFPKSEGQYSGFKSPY
test-details: IL-1β release assay in differentiated THP-1 cells stimulated with BzATP (Example 9)
condition-notes: THP-1 cells, BzATP-stimulated IL-1β release, four parameter logistic fit
Please assign Criterion not met whenever IC50 is at or above 100 nM, and Criterion met whenever it is below.

Record excerpt, results attached:
>  <record-smiles>
CC(=O)OCCn1ccc2c(NC(=O)Cc3cc(C(F)(F)F)ccc3C(F)(F)F)cccc2c1=O

>  <tested-system>
P2X7 receptor (Homo sapiens)

>  <cat>
Criterion not met

$$$$
>  <record-smiles>
CN(C)CCn1ccc2c(NC(=O)CC3(O)CC(C)(C)CC(C)(C)C3)cccc2c1=O

>  <tested-system>
P2X7 receptor (Homo sapiens)

>  <cat>
Criterion met

$$$$
>  <record-smiles>
O=C(CC1CCCCCC1)Nc1cccc2c(=O)n(CC3CCOCC3)ccc12

>  <tested-system>
P2X7 receptor (Homo sapiens)

>  <cat>
Criterion met

$$$$

Enquiry: Check if IC50 falls below 100 nM for `CC(=O)OCCn1ccc2c(NC(=O)Cc3cc(C(F)(F)F)cc(C(F)(F)F)c3)cccc2c1=O` .
Return: Criterion not met

Enquiry: Regarding `CN(C)CCn1ccc2c(NC(=O)Cc3ccc(Cl)c(C(F)(F)F)c3)cccc2c1=O` , kindly confirm whether its IC50 is beneath 100 nM.
Return: Criterion not met

Enquiry: Hello, I'm reviewing records and need to know if IC50 of `O=C(Cc1cccc(C(F)(F)F)c1F)Nc1cccc2c(=O)n(Cc3ccccn3)ccc12` is below 100 nM. Could you check?
Return: Criterion not met

Enquiry: Item `CN(C)CCn1ccc2c(NC(=O)Cc3ccccc3)cccc2c1=O` : IC50 beneath 100 nM, strictly?
Return: Criterion not met

Enquiry: Confirm or reject: IC50 of `Cc1ccc(CCC(=O)Nc2cccc3c(=O)n(CCN(C)C)ccc23)cc1` lies strictly below 100 nM
Return: Criterion met
